Form: system (Somatostatin receptor type 1 (Homo sapiens)), quantity (Ki), values below.

Answer with the recorded Ki for the compound listed here: CC(C)[C@@H]1NC(=O)[C@H](CCCCN)NC(=O)[C@@H](Cc2c[nH]c3ccccc23)NC(=O)[C@H](Cc2cccnc2)NC(=O)[C@H](NC(=O)[C@@H](N)Cc2ccc3ccccc3c2)CSSC[C@@H](C(=O)N[C@H](C(N)=O)C(c2ccccc2)c2ccccc2)NC1=O > 1 µM

Answer with the recorded Ki for the compound listed here: C[C@@H](O)[C@@H]1NC(=O)[C@H](CCCCN)NC(=O)[C@@H](Cc2c[nH]c3ccccc23)NC(=O)[C@H](Cc2ccc(O)cc2)NC(=O)[C@H](NC(=O)[C@@H](N)Cc2ccc(Cl)cc2)CSSC[C@@H](C(=O)N[C@@H](Cc2ccc3ccccc3c2)C(N)=O)NC1=O > 1 µM

###

pKi: −log10 of the molar value.
value kind: pKi

// output pKi; input C[C@@H](O)[C@@H]1NC(=O)[C@H](CCCCN)NC(=O)[C@@H](Cc2c[nH]c3ccccc23)NC(=O)[C@@H](Cc2cccnc2)NC(=O)C(NC(=O)[C@@H](N)Cc2ccc(Cl)cc2)CSSCC(C(=O)N[C@@H](Cc2ccc3ccccc3c2)C(N)=O)NC1=O (stereo in doubt) ; system Somatostatin receptor type 4 (Homo sapiens) < 6.00

// output pKi; input CC(C)[C@@H]1NC(=O)[C@H](CCCCN)NC(=O)[C@@H](Cc2c[nH]c3ccccc23)NC(=O)[C@H](Cc2cccnc2)NC(=O)[C@H](NC(=O)[C@@H](N)Cc2ccc(I)cc2)CSSC[C@@H](C(=O)N[C@@H](Cc2ccc(I)cc2)C(N)=O)NC1=O ; system Somatostatin receptor type 4 (Homo sapiens) 6.36

// output pKi; input CC(C)[C@@H]1NC(=O)[C@H](CCCCN)NC(=O)[C@@H](Cc2c[nH]c3ccccc23)NC(=O)[C@H](Cc2ccc(O)c(I)c2)NC(=O)C(NC(=O)[C@@H](N)Cc2ccc3ccccc3c2)CSSCC(C(=O)N[C@@H](Cc2ccc3ccccc3c2)C(N)=O)NC1=O (stereo in doubt) ; system Somatostatin receptor type 4 (Homo sapiens) < 6.00

// output pKi; input CC(C)[C@@H]1NC(=O)[C@H](CCCCN)NC(=O)[C@@H](Cc2c[nH]c3ccccc23)NC(=O)[C@H](Cc2cccnc2)NC(=O)[C@H](NC(=O)[C@@H](N)Cc2ccc(F)cc2)CSSC[C@@H](C(=O)N[C@@H](Cc2ccc3ccccc3c2)C(N)=O)NC1=O ; system Somatostatin receptor type 4 (Homo sapiens) < 6.00

// output pKi; input C[C@@H](O)[C@@H]1NC(=O)[C@H](CCCCN)NC(=O)[C@@H](Cc2c[nH]c3ccccc23)NC(=O)[C@H](Cc2ccccc2)NC(=O)[C@H](NC(=O)[C@@H](N)Cc2ccc(Cl)cc2)CSSC[C@@H](C(=O)N[C@@H](Cc2ccc3ccccc3c2)C(N)=O)NC1=O ; system Somatostatin receptor type 4 (Homo sapiens) < 6.00

###

tested target: Somatostatin receptor
method summary: Antagonism of in vitro SRIF inhibition of GH release in rat in vitro pituitary cell assay
Format: functional, cell-based
condition notes: pituitary gland cell
Can you tell me log10 IC50 for the items I'm about to list?
All values: log10 IC50 [nM].

Answer with the recorded log10 IC50 for the molecule listed here: CC(C)[C@H]1NC(=O)[C@H](CCCCN)NC(=O)[C@@H](Cc2c[nH]c3ccccc23)NC(=O)[C@H](Cc2cccnc2)NC(=O)[C@@H](NC(=O)[C@@H](N)Cc2ccc(F)cc2)CSSC[C@H](C(=O)N[C@@H](Cc2ccc(F)cc2)C(N)=O)NC1=O 1.94

Answer with the recorded log10 IC50 for the molecule listed here: CC(C)[C@H]1NC(=O)[C@H](CCCCN)NC(=O)[C@@H](Cc2c[nH]c3ccccc23)NC(=O)[C@H](Cc2cccnc2)NC(=O)[C@@H](NC(=O)[C@@H](N)Cc2ccc(C#N)cc2)CSSC[C@H](C(=O)N[C@@H](Cc2ccc(C#N)cc2)C(N)=O)NC1=O 1.71

Answer with the recorded log10 IC50 for the molecule listed here: CC(C)[C@H]1NC(=O)[C@H](CCCCN)NC(=O)[C@@H](Cc2c[nH]c3ccccc23)NC(=O)[C@H](Cc2cccnc2)NC(=O)[C@@H](NC(=O)[C@@H](N)Cc2ccc(F)cc2)CSSC[C@H](C(=O)N[C@@H](Cc2ccc3ccccc3c2)C(N)=O)NC1=O 0.81

Answer with the recorded log10 IC50 for the molecule listed here: C[C@@H](O)[C@@H]1NC(=O)[C@H](CCCCN)NC(=O)[C@@H](Cc2c[nH]c3ccccc23)NC(=O)[C@@H](Cc2ccccn2)NC(=O)C(NC(=O)[C@@H](N)Cc2ccc(Cl)cc2)CSSCC(C(=O)N[C@@H](Cc2ccc3ccccc3c2)C(N)=O)NC1=O (stereo in doubt) 0.43

Answer with the recorded log10 IC50 for the molecule listed here: C[C@@H](O)[C@@H]1NC(=O)[C@H](CCCCN)NC(=O)[C@@H](Cc2c[nH]c3ccccc23)NC(=O)[C@H](Cc2ccccn2)NC(=O)C(NC(=O)[C@@H](N)Cc2ccc(Cl)cc2)CSSCC(C(=O)N[C@@H](Cc2ccc3ccccc3c2)C(N)=O)NC1=O (stereo in doubt) 2.13

Answer with the recorded log10 IC50 for the molecule listed here: CC(C)[C@H]1NC(=O)[C@H](CCCCN)NC(=O)[C@@H](Cc2c[nH]c3ccccc23)NC(=O)[C@H](Cc2cccnc2)NC(=O)[C@@H](NC(=O)[C@@H](N)Cc2ccc3ccccc3c2)CSSC[C@H](C(=O)N[C@@H](Cc2ccc3ccccc3c2)C(N)=O)NC1=O 1.18

###

Can you tell me Ki for the items I'm about to list?
tested target: UniProtKB P32745
Sequence (P32745 whole entry): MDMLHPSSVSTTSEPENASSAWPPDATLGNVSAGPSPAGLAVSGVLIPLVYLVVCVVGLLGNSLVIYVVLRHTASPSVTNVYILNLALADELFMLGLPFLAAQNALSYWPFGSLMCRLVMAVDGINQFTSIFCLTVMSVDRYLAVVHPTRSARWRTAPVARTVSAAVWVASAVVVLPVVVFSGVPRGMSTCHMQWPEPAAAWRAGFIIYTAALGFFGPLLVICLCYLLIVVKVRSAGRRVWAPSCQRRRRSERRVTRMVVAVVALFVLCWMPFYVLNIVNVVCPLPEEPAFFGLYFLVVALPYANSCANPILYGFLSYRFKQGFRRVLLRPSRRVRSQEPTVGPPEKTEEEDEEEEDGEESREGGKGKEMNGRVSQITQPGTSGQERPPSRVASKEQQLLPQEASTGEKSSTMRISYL
Provide the reading as a plain figure in nM.

Answer with the recorded Ki for the compound listed here: CC(C)[C@@H]1NC(=O)[C@H](CCCCN)NC(=O)[C@@H](Cc2c[nH]c3ccccc23)NC(=O)[C@H](Cc2ccccn2)NC(=O)[C@H](NC(=O)[C@@H](N)Cc2c(F)c(F)c(F)c(F)c2F)CSSC[C@@H](C(=O)N[C@@H](Cc2c(F)c(F)c(F)c(F)c2F)C(N)=O)NC1=O 170

Answer with the recorded Ki for the compound listed here: CC(C)[C@@H]1NC(=O)[C@H](CCCCN)NC(=O)[C@@H](Cc2c[nH]c3ccccc23)NC(=O)[C@H](Cc2ccc(O)cc2)NC(=O)[C@H](NC(=O)[C@@H]2Cc3ccccc3CN2)CSSC[C@@H](C(=O)N2Cc3ccccc3C[C@H]2C(N)=O)NC1=O 802

Answer with the recorded Ki for the compound listed here: C[C@@H](O)[C@@H]1NC(=O)[C@H](CCCCN)NC(=O)[C@@H](Cc2c[nH]c3ccccc23)NC(=O)[C@H](Cc2ccccc2)NC(=O)[C@H](NC(=O)[C@@H](N)Cc2ccc(Cl)cc2)CSSC[C@@H](C(=O)N[C@@H](Cc2ccc3ccccc3c2)C(N)=O)NC1=O 290

Answer with the recorded Ki for the compound listed here: CC(C)[C@H]1NC(=O)[C@H](CCCCN)NC(=O)[C@@H](Cc2c[nH]c3ccccc23)NC(=O)[C@H](Cc2c[nH]cn2)NC(=O)C(NC(=O)[C@@H](N)Cc2ccc(F)cc2)CSSCC(C(=O)N[C@@H](Cc2ccc(F)cc2)C(N)=O)NC1=O (stereo in doubt) 269

###

Bridge positions count the residues as written; N and C are the ends. Square brackets hold non-standard residues; d marks the D form. Peptide text beside a SMILES is read from it. 2Nal = N[C@@H](Cc1ccc2ccccc2c1)C(=O)O; Bta = N[C@@H](Cc1csc2ccccc12)C(=O)O; 3Pal = N[C@@H](Cc1cccnc1)C(=O)O; Nle = CCCC[C@H](N)C(=O)O
value kind: Ki

// output Ki; input CC(C)[C@@H]1NC(=O)[C@H](CCCCN)NC(=O)[C@@H](Cc2c[nH]c3ccccc23)NC(=O)[C@H](Cc2csc3ccccc23)NC(=O)[C@H](NC(=O)[C@@H](N)Cc2ccc3ccccc3c2)CSSC[C@@H](C(=O)N[C@@H](Cc2ccc3ccccc3c2)C(N)=O)NC1=O (H-[2Nal][dC][Bta][dW]KVC[2Nal]-NH2; disulfide 2-7) ; system Somatostatin receptor type 5 (Homo sapiens, UniProt P35346) 1400 nM

// output Ki; input CCCC[C@@H]1NC(=O)[C@H](CCCCN)NC(=O)[C@@H](Cc2c[nH]c3ccccc23)NC(=O)[C@H](Cc2cccnc2)NC(=O)[C@H](NC(=O)[C@@H](N)Cc2ccc3ccccc3c2)CSSC[C@@H](C(=O)N[C@@H](Cc2ccc3ccccc3c2)C(N)=O)NC1=O (H-[2Nal][dC][3Pal][dW]K[Nle]C[2Nal]-NH2; disulfide 2-7) ; system Somatostatin receptor type 5 (Homo sapiens, UniProt P35346) 814 nM

###

Form: system (Somatostatin receptor type 1 (Homo sapiens, UniProt P30872)), quantity (pKi), values below.
Lab note: report pKi as minus log10 of the concentration in molar units, number only.

Answer with the recorded pKi for the compound listed here: C[C@@H](O)[C@@H]1NC(=O)[C@H](CCCCN)NC(=O)[C@@H](Cc2c[nH]c3ccccc23)NC(=O)[C@H](Cc2ccccn2)NC(=O)C(NC(=O)[C@@H](N)Cc2ccc(Cl)cc2)CSSCC(C(=O)N[C@@H](Cc2ccc3ccccc3c2)C(N)=O)NC1=O (stereo in doubt) 5.77

Answer with the recorded pKi for the compound listed here: CC(C)[C@@H]1NC(=O)[C@H](CCCCN)NC(=O)[C@@H](Cc2c[nH]c3ccccc23)NC(=O)[C@H](Cc2cccnc2)NC(=O)[C@H](NC(=O)[C@@H](N)Cc2ccc(F)cc2)CSSC[C@@H](C(=O)N[C@@H](Cc2ccc3ccccc3c2)C(N)=O)NC1=O 6.32

Origin of values: ChEMBL document CHEMBL1132220
